Please go through the items and note down their composite z-score.
# SUBJECT_OF_TEST: Carbonic anhydrase 2 (Homo sapiens)
# PROTOCOL_TEXT: CAII small-molecule binders, profiling panel, biochemical, small-molecule microarray, Alexa647-labelled CAII (AID 1122)
# PROTOCOL_CONDITIONS: CAII-A647 binding fluorescence, higher = more signal
# print the numeric value only

Sample COC(=O)[C@H](C)NC(=O)CCC1CC(OC(=O)NCCc2ccc(F)cc2)CC2(CCCC(COC(=O)NCCC(C)C)O2)O1 (stereo not given in full) — what was its composite z-score?
0.325

Sample COC(=O)CC=C[C@@H](C)[C@@H](C=NOCC[C@@H]1C=C[C@H](OC(C)=O)[C@@H](COC(C)=O)O1)OC — what was its composite z-score?
-0.0197

Sample COC(=O)CC=C[C@@H](C)[C@@H](C=NO[C@H](C)c1cn([C@H](CO)Cc2ccccc2)nn1)OC — what was its composite z-score?
-0.16

Sample CCc1cc2c(nc1CC)CCN(CCC(C)=NOC[C@H]1O[C@H](c3ccccc3)C=C[C@@H]1Oc1ccc(OC)cc1)C2 — what was its composite z-score?
0.787

Sample C[C@@H]1NC(=O)[C@@H](C)COC(=O)[C@H](C)NC(=O)[C@@H](C)COC1=O — what was its composite z-score?
0.394

Sample COCCNC(=O)OCC1CCCC2(CC(OC(=O)NCc3ccc4c(c3)OCO4)CC(CCC(=O)N[C@@H](C)C(=O)OC)O2)O1 (stereo not given in full) — what was its composite z-score?
0.234

Sample CCOC(=O)CCN1C(=O)[C@H]2[C@H]3[C@H](O)[C@H](O)CC(=NOCc4ccccc4)[C@H]3CC[C@H]2C1=O — what was its composite z-score?
-0.19

Sample CCOC(=O)[C@H](CC(C)C)NC(=O)CCC1CC(OC(=O)NCc2cccc3ccccc23)CC2(CCCC(COC(=O)NCCOC)O2)O1 (stereo not given in full) — what was its composite z-score?
0.431

Sample C#CCCCON=C1C[C@@H](O)[C@@H](O)[C@@H]2[C@@H]3C(=O)N(C(C)(C)C)C(=O)[C@@H]3CC[C@H]12 — what was its composite z-score?
-0.466

Sample CCN1C(=O)[C@H]2[C@H]3[C@H](O)[C@H](O)CC(=NO[C@@H](C)c4cn([C@H](CO)Cc5ccccc5)nn4)[C@@H]3CC[C@H]2C1=O — what was its composite z-score?
0.556

Sample COC(=O)[C@@H]1CC[C@H](C)[C@@H](c2ccc(C)cc2)N1C(=O)c1ccc(C=NOC[C@@H](C)[C@H](OCc2ccccc2)C(C)C)cc1 — what was its composite z-score?
0.239

Sample CC(C)CON=C1C[C@@H](O)[C@@H](O)[C@@H]2[C@@H]3C(=O)N(c4ccc(F)cc4F)C(=O)[C@@H]3CC[C@H]12 — what was its composite z-score?
0.501

Sample C=CC[C@@H]1C=C[C@H](ON=C(C)CCC(=O)OC[C@H]2O[C@H](C#Cc3ccccc3)C=C[C@@H]2Oc2ccc(C)cc2)[C@@H](CO)O1 — what was its composite z-score?
0.286

Sample COC(=O)C1=C(C)N(Cc2ccccc2)[C@]23O[C@](C(=O)OC)(C(=O)N2[C@@H]1c1ccccc1)C(C(=O)OC)=C3C(=O)OC — what was its composite z-score?
0.489

Sample COC(=O)CC=C[C@@H](C)[C@@H](C=NOCC[C@@H]1C=C[C@H](OC(C)=O)[C@@H](COC(C)=O)O1)NS(=O)(=O)c1ccc(C)cc1 — what was its composite z-score?
-0.297
